Measured target: Phosphatidylinositol 4,5-bisphosphate 3-kinase catalytic subunit delta isoform (Homo sapiens)
Sequence (O00329 whole entry): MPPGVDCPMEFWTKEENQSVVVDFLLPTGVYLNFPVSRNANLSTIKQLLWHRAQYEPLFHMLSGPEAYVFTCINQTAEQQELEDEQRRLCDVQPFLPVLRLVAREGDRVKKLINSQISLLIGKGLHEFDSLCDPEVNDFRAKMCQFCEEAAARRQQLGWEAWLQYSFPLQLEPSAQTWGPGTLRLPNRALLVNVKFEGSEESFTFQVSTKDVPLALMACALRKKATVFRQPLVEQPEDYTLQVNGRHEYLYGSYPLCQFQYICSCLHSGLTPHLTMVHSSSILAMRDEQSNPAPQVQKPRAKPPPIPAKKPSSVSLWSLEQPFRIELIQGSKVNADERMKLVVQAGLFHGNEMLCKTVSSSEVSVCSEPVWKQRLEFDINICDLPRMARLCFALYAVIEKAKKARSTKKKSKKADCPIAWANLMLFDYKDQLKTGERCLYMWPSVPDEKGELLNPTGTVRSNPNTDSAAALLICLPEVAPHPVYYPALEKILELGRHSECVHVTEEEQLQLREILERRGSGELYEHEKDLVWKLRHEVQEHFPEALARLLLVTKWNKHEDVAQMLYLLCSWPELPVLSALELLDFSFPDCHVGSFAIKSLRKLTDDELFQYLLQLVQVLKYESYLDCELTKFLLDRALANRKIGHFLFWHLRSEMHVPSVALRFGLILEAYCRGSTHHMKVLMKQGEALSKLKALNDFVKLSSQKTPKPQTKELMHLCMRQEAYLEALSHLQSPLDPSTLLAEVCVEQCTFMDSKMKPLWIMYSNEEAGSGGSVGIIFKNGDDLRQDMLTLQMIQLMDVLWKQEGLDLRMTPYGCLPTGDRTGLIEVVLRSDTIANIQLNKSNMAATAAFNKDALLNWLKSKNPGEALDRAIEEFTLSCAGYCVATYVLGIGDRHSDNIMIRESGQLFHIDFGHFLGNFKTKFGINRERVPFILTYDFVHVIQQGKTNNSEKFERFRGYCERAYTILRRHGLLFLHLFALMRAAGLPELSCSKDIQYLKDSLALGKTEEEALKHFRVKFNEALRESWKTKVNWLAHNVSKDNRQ
Protocol notes: Inhibition of PI3K delta (unknown origin) using PIP2 as substrate measured after 1 hr in presence of ATP by ADP-glo luminescence assay
Please provide measured pIC50 for the entries that follow.
Recall that pIC50 is obtained by taking minus log10 of the concentration measured in molar.

q: pIC50 for O=C(c1ccc(NC(=S)Nc2ccc(-c3nc(N4CCOCC4)nc(N4CCOCC4)n3)cc2)cc1)N1CCC[C@H]1CO ?
a: 6.97

q: pIC50 for CN1CCN(C(=O)c2ccc(NC(=S)Nc3ccc(-c4nc(N5CCOCC5)nc(N5CCOCC5)n4)cc3)cc2)CC1 ?
a: 6.47

q: pIC50 for O=C(Nc1ccc(C(=O)N2CCC[C@@H]2CO)cc1)Nc1ccc(-c2nc(N3CCOCC3)nc(N3CCOCC3)n2)cc1 ?
a: 7.47

q: pIC50 for O=C(Nc1ccc(C(=O)N2CCC[C@H]2CO)cc1)Nc1ccc(-c2nc(N3CCOCC3)nc(N3CCOCC3)n2)cc1 ?
a: 8.03

The reported measurements were obtained from ChEMBL document CHEMBL6121003.
